target: TRPM8 (Rattus norvegicus, UniProt Q8R455); construct: from tissue; host or cells: whole animal, female SD rats (in vivo); experiment: Confirmation test of inhibitory effects on icilin-induced wet-dog shakes; assay type: in vivo; settings: female SD rats, oral dose 3 mg/kg, icilin 1 mg/kg i.p. 1 hour after dosing, shakes counted for 5 minutes
Sequence (Q8R455 whole entry): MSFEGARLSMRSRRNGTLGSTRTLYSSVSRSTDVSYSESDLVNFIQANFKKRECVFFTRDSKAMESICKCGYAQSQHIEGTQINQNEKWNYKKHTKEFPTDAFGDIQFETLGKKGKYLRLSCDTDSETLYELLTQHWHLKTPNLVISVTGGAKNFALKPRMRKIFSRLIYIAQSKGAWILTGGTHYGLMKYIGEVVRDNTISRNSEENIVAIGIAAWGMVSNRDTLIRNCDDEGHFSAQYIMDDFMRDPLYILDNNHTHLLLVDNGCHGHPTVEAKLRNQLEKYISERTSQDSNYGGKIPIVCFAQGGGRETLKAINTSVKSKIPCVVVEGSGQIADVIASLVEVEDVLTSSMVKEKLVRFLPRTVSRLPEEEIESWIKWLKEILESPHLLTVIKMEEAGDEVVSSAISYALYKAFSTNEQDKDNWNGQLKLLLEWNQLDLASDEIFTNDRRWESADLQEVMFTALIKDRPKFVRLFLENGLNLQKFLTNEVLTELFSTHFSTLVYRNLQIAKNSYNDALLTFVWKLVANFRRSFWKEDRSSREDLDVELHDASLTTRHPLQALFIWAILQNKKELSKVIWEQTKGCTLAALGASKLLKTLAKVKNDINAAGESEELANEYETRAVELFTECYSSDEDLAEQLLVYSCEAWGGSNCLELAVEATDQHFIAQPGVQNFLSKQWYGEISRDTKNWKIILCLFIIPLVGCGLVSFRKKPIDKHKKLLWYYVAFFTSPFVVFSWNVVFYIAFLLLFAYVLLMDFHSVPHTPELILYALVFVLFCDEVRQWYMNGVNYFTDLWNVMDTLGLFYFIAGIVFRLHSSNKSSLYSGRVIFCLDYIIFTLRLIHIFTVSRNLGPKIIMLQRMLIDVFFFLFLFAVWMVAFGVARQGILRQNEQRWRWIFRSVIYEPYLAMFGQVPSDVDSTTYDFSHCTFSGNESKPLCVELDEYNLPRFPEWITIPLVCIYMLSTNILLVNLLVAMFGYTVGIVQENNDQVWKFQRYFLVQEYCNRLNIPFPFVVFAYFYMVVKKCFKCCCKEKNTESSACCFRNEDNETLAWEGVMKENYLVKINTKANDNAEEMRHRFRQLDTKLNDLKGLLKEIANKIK
Endpoint name: % inhibition of Wet-Dog Shake (%)

>>> measurement("O=C(N[C@@H](CO)Cc1ccccn1)c1cccc(F)c1-c1n[nH]c(-c2ccc(F)cc2)c1F [Example 1-105]")
90
>>> measurement("O=C(N[C@@H](CCO)Cc1ccccn1)c1cccc(F)c1-c1cc(-c2ccc(Cl)cc2)[nH]n1 [Example 1-131]")
94
>>> measurement("O=C(N[C@@H](CCO)Cc1ccccn1)c1cccc(Cl)c1-c1cc(-c2ccc(F)cc2)[nH]n1 [Example 36-1]")
39
>>> measurement("C[C@@](O)(CO)[C@@H](Cc1ccccn1)NC(=O)c1cccc(Cl)c1-c1cc(-c2ccc(F)cc2)[nH]n1 [Example 1-225]")
37
>>> measurement("O=C(NC(CCO)Cc1ccccn1)c1cccc(F)c1-c1cc(-c2ccc(F)cc2)[nH]n1 (stereo not shown) [Example 26-1]")
89
>>> measurement("C[C@@](CO)(Cc1ccccn1)NC(=O)c1cccc(F)c1-c1cc(-c2ccc(F)cc2)[nH]n1 [Example 36-2]")
72
>>> measurement("CCOC(c1ccccn1)[C@H](CO)NC(=O)c1cccc(F)c1-c1cc(-c2ccc(F)cc2)[nH]n1 (stereo partly shown) [Example 43-22]")
98

Source of measurements: patent US10287251B2
